Data origin, for the record: ChEMBL document CHEMBL1128137

Target: Polyunsaturated fatty acid 5-lipoxygenase (Rattus norvegicus, UniProt P12527)
Sequence (P12527 whole entry): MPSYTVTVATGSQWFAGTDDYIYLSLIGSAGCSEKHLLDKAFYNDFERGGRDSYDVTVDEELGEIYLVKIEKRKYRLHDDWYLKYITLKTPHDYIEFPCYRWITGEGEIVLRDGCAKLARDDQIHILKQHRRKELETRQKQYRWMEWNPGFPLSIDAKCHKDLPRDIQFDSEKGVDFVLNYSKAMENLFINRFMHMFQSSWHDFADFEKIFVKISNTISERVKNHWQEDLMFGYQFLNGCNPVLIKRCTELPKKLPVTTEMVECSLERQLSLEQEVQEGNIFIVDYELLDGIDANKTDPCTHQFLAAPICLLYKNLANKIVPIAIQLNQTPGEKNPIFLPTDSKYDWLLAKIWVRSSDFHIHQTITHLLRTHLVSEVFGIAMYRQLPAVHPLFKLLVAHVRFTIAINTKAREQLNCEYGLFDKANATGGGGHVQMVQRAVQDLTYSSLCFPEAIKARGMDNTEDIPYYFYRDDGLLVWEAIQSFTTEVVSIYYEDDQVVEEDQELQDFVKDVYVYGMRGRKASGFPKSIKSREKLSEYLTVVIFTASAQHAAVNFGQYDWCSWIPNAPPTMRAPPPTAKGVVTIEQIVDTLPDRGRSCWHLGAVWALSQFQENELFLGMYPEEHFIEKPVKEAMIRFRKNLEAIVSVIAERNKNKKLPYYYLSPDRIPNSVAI
Test: Inhibition of 5-lipoxygenase of rat basophilic leukemia (RBL) cell cytosolic enzymes
# strict inequality: IC50 < 300 nM yields t, everything else yields f

Item COc1cc(/C=C/C=C/C(=O)NCCN2CCC(OC(c3ccccc3)c3ccccc3)CC2)ccc1O : IC50 beneath 300 nM, strictly?
t

Same thing, different molecule: COc1cc(/C=C/C=C/c2nc3cc(C(=O)O)ccc3o2)ccc1O
f

Same thing, different molecule: COc1cc(/C=C/C=C/c2nc3c(ccc4ccccc43)o2)ccc1O
t

Same thing, different molecule: COc1cc(/C=C/C=C/c2nc3cc(Cl)ccc3o2)ccc1O
f

Same thing, different molecule: COc1cc(/C=C/C=C/c2nc3ccccc3o2)ccc1O
f

Same thing, different molecule: Oc1ccc(/C=C/C=C/c2nc3ccccc3o2)cc1O
t

Same thing, different molecule: CCOC(=O)c1ccc2nc(/C=C/C=C/c3ccc(O)c(OC)c3)oc2c1
t

Same thing, different molecule: CCOC(=O)/C=C/c1ccc(O)c(O)c1 [ETHYL CAFFEATE]
f

Same thing, different molecule: COc1cc(/C=C/C=C/c2nc3cc(CO)ccc3o2)ccc1O
t

Same thing, different molecule: CCOC(=O)c1ccc2oc(/C=C/C=C/c3ccc(O)c(OC)c3)nc2c1
t

Same thing, different molecule: COc1cc(/C=C/C=C/c2nc3cc(C)ccc3o2)ccc1O
t

Same thing, different molecule: CCOC(=O)c1ccc2oc(/C=C/C=C/c3ccc(O)c(O)c3)nc2c1
t

Same thing, different molecule: COc1cc(/C=C/C=C/c2nc3ncccc3o2)ccc1O
f
